src = patent US4160829A

The entries below come with measured log10 MIC values attached.
Test system: Past.multo. A 723
Assay details: agar serial dilution test
Format: cell-based, Pasteurella multocida
Study conditions: Pasteurella multocida; agar serial dilution, 24 hours, 37° C.; read-out: minimal inhibitory concentration (MIC)
Observable: log10 MIC (log10 of the value in µg/mL)

> print(dat)
                                    compound  measurement.target  data.value
 1  Cc1nc(CC(=O)N[C@@H]2C(=O)N3[C@@H]2SC(C)(C)[C@@H]3C(=O)O)no1 [Example 13]   Past.multo. A 723        0.00
 2  CC(=O)OCC1=C(C(=O)O)N2C(=O)[C@@H](NC(=O)C(C)c3nc(C)no3)[C@H]2SC1 (mixture of isomers) [Example 11I]   Past.multo. A 723        0.18
 3  Cc1nc(CC(=O)N[C@@H]2C(=O)N3C(C(=O)O)=C(CSc4nnnn4C)CS[C@H]23)no1 [41 B]   Past.multo. A 723        0.18
 4  CCc1noc(C(C)C(=O)N[C@@H]2C(=O)N3[C@@H]2SC(C)(C)[C@@H]3C(=O)O)n1 (stereo partly shown) [Example 11M]   Past.multo. A 723        0.00
 5  CCc1noc(CC(=O)N[C@@H]2C(=O)N3C(C(=O)O)=C(COC(C)=O)CS[C@H]23)n1 [Example 11L]   Past.multo. A 723        0.30
 6  Cc1noc(C(C(=O)N[C@@H]2C(=O)N3[C@@H]2SC(C)(C)[C@@H]3C(=O)O)c2ccccc2)n1 (mixture of isomers) [Example 6]   Past.multo. A 723        0.00
 7  CC(=O)OCC1=C(C(=O)O)N2C(=O)[C@@H](NC(=O)Cc3cccs3)[C@H]2SC1 [Cephalotin, reference compound]   Past.multo. A 723       -0.15
 8  Cc1nnc(SCC2=C(C(=O)O)N3C(=O)[C@@H](NC(=O)Cn4cnnn4)[C@H]3SC2)s1 [Cephazolin, reference compound]   Past.multo. A 723        0.18
 9  Cc1noc(C(C)C(=O)N[C@@H]2C(=O)N3[C@@H]2SC(C)(C)[C@@H]3C(=O)O)n1 (mixture of isomers) [Example 11H]   Past.multo. A 723        0.18
10  CC1=C(C(=O)O)N2C(=O)[C@@H](NC(=O)Cc3nc(C)no3)[C@H]2SC1 [Example 11F]   Past.multo. A 723        2.00
11  Cc1nc(CC(=O)N[C@@H]2C(=O)N3C(C(=O)O)=C(CN=[N+]=[N-])C[S+]([O-])[C@H]23)no1 (stereo partly shown) [Example 19]   Past.multo. A 723        1.40
12  CC(=O)OCC1=C(C(=O)O)N2C(=O)[C@@H](NC(=O)Cc3ccccc3)[C@H]2SC1 [Cephalosporin G, reference compound]   Past.multo. A 723        0.00
13  CC(=O)OCC1=C(C(=O)O)N2C(=O)[C@@H](NC(=O)C(c3ccccc3)c3nc(C)no3)[C@H]2SC1 (stereo partly shown) [Compound B]   Past.multo. A 723       -0.30
14  COCc1noc(CC(=O)N[C@@H]2C(=O)N3[C@@H]2SC(C)(C)[C@@H]3C(=O)O)n1 [Compound A]   Past.multo. A 723        0.00
15  CCc1noc(CC(=O)N[C@@H]2C(=O)N3[C@@H]2SC(C)(C)[C@@H]3C(=O)O)n1 [Example 11G]   Past.multo. A 723        0.00
16  COC(=O)C(C(=O)N[C@@H]1C(=O)N2C(C(=O)O)=C(COC(C)=O)CS[C@H]12)c1nc(C)no1 (stereo partly shown) [Example 38]   Past.multo. A 723        1.10
17  CC(=O)OCC1=C(C(=O)O)N2C(=O)[C@@H](NC(=O)Cc3noc(Cc4ccccc4)n3)[C@H]2SC1 [Compound C]   Past.multo. A 723        0.00
18  CC(=O)OCC1=C(C(=O)O)N2C(=O)[C@@H](NC(=O)Cc3noc(C)n3)[C@H]2SC1 [Example 11D]   Past.multo. A 723        0.78
19  CC1(C)S[C@@H]2[C@H](NC(=O)Cc3nc(-c4c(Cl)cccc4Cl)no3)C(=O)N2[C@H]1C(=O)O [Example 11A]   Past.multo. A 723        0.48
20  Cc1noc(CC(=O)N[C@@H]2C(=O)N3[C@@H]2SC(C)(C)[C@@H]3C(=O)O)n1 [Example 11B]   Past.multo. A 723        0.00
21  Cc1noc(CC(=O)N[C@@H]2C(=O)N3C(C(=O)O)=C(CSc4nnnn4C)CS[C@H]23)n1 [Compound G]   Past.multo. A 723        0.00
22  CC(=O)OCC1=C(C(=O)O)N2C(=O)[C@@H](NC(=O)Cc3nc(C)no3)[C@H]2SC1 [Compound D]   Past.multo. A 723        0.18
23  CCc1noc(C(C)C(=O)N[C@@H]2C(=O)N3C(C(=O)O)=C(COC(C)=O)CS[C@H]23)n1 (mixture of isomers) [Example 11K]   Past.multo. A 723        0.18
24  CC1(C)S[C@@H]2[C@H](NC(=O)[C@H](N)c3ccccc3)C(=O)N2[C@H]1C(=O)O [Ampicillin, reference compound]   Past.multo. A 723       -0.60
25  Cn1nnnc1SCC1=C(C(=O)O)N2C(=O)[C@@H](NC(=O)Cc3nc(CC(=O)O)no3)[C@H]2SC1 [Compound F]   Past.multo. A 723        0.00
26  C=CCNC(=O)Cc1nc(CC(=O)N[C@@H]2C(=O)N3C(C(=O)O)=C(COC(C)=O)CS[C@H]23)no1 [Example 31]   Past.multo. A 723        0.18
27  CC1=C(C(=O)O)N2C(=O)[C@@H](NC(=O)Cc3nc(-c4c(Cl)cccc4Cl)no3)[C@H]2SC1 [Example 11E]   Past.multo. A 723        1.40
28  CCc1nc(CC(=O)N[C@@H]2C(=O)N3C(C(=O)O)=C(CSc4nnc(C)s4)CS[C@H]23)no1 [41 A]   Past.multo. A 723        0.18
